pKi: −log10 of the molar value.
These compounds were tested on human mGlu 5a receptor (Homo sapiens); pKi is the recorded read-out.
Sequence (P41594 21-1180 isoform P41594-2 limits assumed): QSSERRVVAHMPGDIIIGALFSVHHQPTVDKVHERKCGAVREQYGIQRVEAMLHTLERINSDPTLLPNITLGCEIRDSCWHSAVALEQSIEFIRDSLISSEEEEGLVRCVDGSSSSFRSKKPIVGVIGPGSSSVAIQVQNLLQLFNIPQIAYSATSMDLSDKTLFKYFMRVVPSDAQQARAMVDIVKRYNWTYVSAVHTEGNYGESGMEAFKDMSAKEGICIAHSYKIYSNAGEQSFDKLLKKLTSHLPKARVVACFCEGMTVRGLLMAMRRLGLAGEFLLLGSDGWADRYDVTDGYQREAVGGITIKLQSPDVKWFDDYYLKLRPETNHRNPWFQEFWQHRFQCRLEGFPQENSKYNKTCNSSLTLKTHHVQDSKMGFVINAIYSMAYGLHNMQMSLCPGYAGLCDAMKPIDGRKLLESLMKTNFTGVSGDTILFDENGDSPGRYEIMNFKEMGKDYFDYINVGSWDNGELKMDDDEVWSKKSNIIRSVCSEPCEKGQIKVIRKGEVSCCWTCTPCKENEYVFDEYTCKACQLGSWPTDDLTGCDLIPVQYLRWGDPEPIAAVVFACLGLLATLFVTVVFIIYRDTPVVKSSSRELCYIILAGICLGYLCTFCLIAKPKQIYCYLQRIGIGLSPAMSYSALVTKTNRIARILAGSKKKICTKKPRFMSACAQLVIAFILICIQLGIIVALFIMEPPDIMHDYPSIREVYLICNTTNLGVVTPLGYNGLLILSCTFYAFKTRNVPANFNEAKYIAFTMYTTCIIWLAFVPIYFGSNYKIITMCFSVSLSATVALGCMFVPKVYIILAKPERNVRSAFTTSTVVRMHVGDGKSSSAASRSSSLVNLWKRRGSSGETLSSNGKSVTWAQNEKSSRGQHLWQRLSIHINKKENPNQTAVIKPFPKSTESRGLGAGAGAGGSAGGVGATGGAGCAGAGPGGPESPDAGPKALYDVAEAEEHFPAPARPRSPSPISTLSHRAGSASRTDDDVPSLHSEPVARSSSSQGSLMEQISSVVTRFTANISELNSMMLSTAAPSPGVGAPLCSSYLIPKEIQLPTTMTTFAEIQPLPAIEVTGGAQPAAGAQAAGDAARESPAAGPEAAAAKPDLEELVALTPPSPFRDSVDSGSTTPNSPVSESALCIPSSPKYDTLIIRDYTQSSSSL
Parameter: pKi

- Smiles code: "Cc1ccc(Nc2cc(C3CC3)nn2C)c(C(=O)Nc2ccc(F)c(C)n2)n1"
  pKi: 7.85
- Smiles code: "Cc1ccc(Nc2cncnc2)c(C(=O)Nc2cccc(Cl)c2)n1"
  pKi: 7.52
- Smiles code: "Cc1ccc(Nc2cccnc2)c(C(=O)Nc2ccnc(Cl)c2)n1"
  pKi: 7.38
- Smiles code: "Cc1ccc(Nc2cccnc2)c(C(=O)Nc2nc(C(F)(F)F)cs2)n1"
  pKi: 7.11
- Smiles code: "Cc1ccc(Nc2cncnc2)c(C(=O)Nc2ncc(C)s2)n1"
  pKi: 7.25

A = Cc1ccc(Nc2cncc(C(F)(F)F)c2)c(C(=O)Nc2ccn(C)n2)n1
B = Cc1ccc(Nc2ccnn2C)c(C(=O)Nc2csc(C)n2)n1
Data request: I need your help: which of the pair A , B has higher pKi? Indicate which entry you chose by stating its label.
Data returned: B
